# Test system: F-luc expression in H-Fluc4 cells
# assay details: Specificity control assay (induced firefly luciferase, H-Fluc4 cells)
# Format: cell-based
readout label: pIC50
Please report pIC50 as the negative decimal logarithm of the molar concentration, giving only the number.

Query :: # query: pIC50 | item O=C(N/N=C/c1ccc(O)cc1)Nc1cccc2nsnc12 [Compound 18A] | system: F-luc expression in H-Fluc4 cells
Result :: 4.82

----------
# Test system: HIV-1YU2
# assay details: Viral infection assay, YU2 Env (wild type and mutants)
# Format: cell-based
# condition set: YU2 Env V255W
readout label: pIC50
Interpret pIC50 as the negative base-10 log of the concentration measured in mol/L.

Query :: Using the record for O=C(N/N=C/c1ccc(O)cc1)Nc1cccc2nsnc12 [Compound 18A] , report its pIC50.
Result :: 5.44
